- System: human peripheral blood mononuclear cells (PBMC)
- Procedure details: CTL induction by peptide from PBMC of HLA-A2-positive cancer patients and healthy individuals, IFN-γ against peptide-pulsed T2 cells (Example 6)
- Assay type: cell-based
- Details: PBMC of healthy individual HD6; peptide-pulsed T2 cells
Measured quantity: INF-γ production (pg/mL)
Please state the figure in pg/mL; there is no need to write the unit.

Examples with answers:
>>> value_observed("DMWTVIAPV (Designed peptide having an ability to activate HLA-A2 restricted Cytotoxic T lymphocytes) [Peptide P22, CPSF 534-542]")
14
>>> value_observed("QLGQGNLKV [Peptide P23]")
45
>>> value_observed("TQLATYSFEV (Designed peptide having an ability to activate HLA-A2 restricted Cytotoxic T lymphocytes) [Peptide P32, CPSF 456-465]")
0
>>> value_observed("KVHPVIWSL [Peptide P21]")
97
>>> value_observed("LLRRADFHV (Designed peptide having an ability to activate HLA-A2 restricted Cytotoxic T lymphocytes) [Peptide P26, Gene 7 1296-1304]")
0

API: value(readout=INF-γ production, system=human peripheral blood mononuclear cells (PBMC)) for record LMLQNALTIM (LMLQNALTTM; Designed peptide having an ability to activate HLA-A2 restricted Cytotoxic T lymphocytes) [Peptide P30, Gene 7 1359-1368]
0

###

- Test system: human peripheral blood mononuclear cells (PBMC)
- Procedure details: CTL induction by peptide from PBMC of HLA-A2-positive cancer patients and healthy individuals, IFN-γ against peptide-pulsed T2 cells (Example 6)
- Type: cell-based
- Details: PBMC of colon cancer patient 13; peptide-pulsed T2 cells
Measured quantity: INF-γ production (pg/mL)
The reply should contain only the number, in pg/mL.

>>> value_observed("KVHPVIWSL [Peptide P21]")
0
>>> value_observed("LLRRADFHV (Designed peptide having an ability to activate HLA-A2 restricted Cytotoxic T lymphocytes) [Peptide P26, Gene 7 1296-1304]")
0
>>> value_observed("DMWTVIAPV (Designed peptide having an ability to activate HLA-A2 restricted Cytotoxic T lymphocytes) [Peptide P22, CPSF 534-542]")
179
>>> value_observed("LMLQNALTIM (LMLQNALTTM; Designed peptide having an ability to activate HLA-A2 restricted Cytotoxic T lymphocytes) [Peptide P30, Gene 7 1359-1368]")
41
>>> value_observed("QLGQGNLKV [Peptide P23]")
138

Can you share its INF-γ production? I mean this sequence: TQLATYSFEV (Designed peptide having an ability to activate HLA-A2 restricted Cytotoxic T lymphocytes) [Peptide P32, CPSF 456-465]
0

###

- Test system: OK-CTLp or OK-CTL clone
- Procedure details: Recognition of peptide-pulsed T2 cells by OK-CTLp or OK-CTL clone (IFN-γ ELISA)
- Format: cell-based, human
- Details: concentration of peptide 0.1 μM
Measured quantity: IFN-γ production (pg/mL)
# number only, unit pg/mL dropped from output

As a guide, the following entries are already answered.
>>> value_observed("KVHPVIWSL [Peptide P21]")
428
>>> value_observed("LLRRADFHV (Designed peptide having an ability to activate HLA-A2 restricted Cytotoxic T lymphocytes) [Peptide P26, Gene 7 1296-1304]")
141
>>> value_observed("LIMLQNALTT (LLMLQNALTT; Designed peptide having an ability to activate HLA-A2 restricted Cytotoxic T lymphocytes) [Peptide P31, Gene 7 1358-1367]")
443

Now for the sequence whose IFN-γ production we want.
I am curious: what IFN-γ production value has been reported for LIMLQNALT [Peptide P28] ?
898

###

- System: human peripheral blood mononuclear cells (PBMC)
- Procedure details: CTL induction by peptide from PBMC of HLA-A2-positive cancer patients and healthy individuals, IFN-γ against peptide-pulsed T2 cells (Example 6)
- Assay type: cell-based
- Details: PBMC of stomach cancer patient 9; peptide-pulsed T2 cells
INF-γ production: recorded values
Quick note: give the figure in pg/mL, leave out the unit.

Solved cases below.
>>> value_observed("TQLATYSFEV (Designed peptide having an ability to activate HLA-A2 restricted Cytotoxic T lymphocytes) [Peptide P32, CPSF 456-465]")
0
>>> value_observed("QLGQGNLKV [Peptide P23]")
0

Proceed to the following item.
Find the recorded INF-γ production belonging to DMWTVIAPV (Designed peptide having an ability to activate HLA-A2 restricted Cytotoxic T lymphocytes) [Peptide P22, CPSF 534-542] and report it.
0

###

Entries and their INF-γ production
- System: human peripheral blood mononuclear cells (PBMC)
- Procedure details: CTL induction by peptide from PBMC of HLA-A2-positive cancer patients and healthy individuals, IFN-γ against peptide-pulsed T2 cells (Example 6)
- Assay type: cell-based
- Details: PBMC of healthy individual HD2; peptide-pulsed T2 cells
- From the text: For six peptides (P21, P22, P24, P26, P30, and P32) with a purity of 95% or higher among peptides from P20 to P32 derived from gene 7 and CPSF among the tumor antigen peptide obtained in Example 4, the activity to induce CTL in vitro from human peripheral blood mononuclear cells (PBMC) was examined using IFN-γ production as an indicator. […]

>>> value_observed("QLGQGNLKV [Peptide P23]")
"13 pg/mL"
>>> value_observed("DMWTVIAPV (Designed peptide having an ability to activate HLA-A2 restricted Cytotoxic T lymphocytes) [Peptide P22, CPSF 534-542]")
"0 pg/mL"

# next sequence below
Fill blank: measured INF-γ production of the sequence LLRRADFHV (Designed peptide having an ability to activate HLA-A2 restricted Cytotoxic T lymphocytes) [Peptide P26, Gene 7 1296-1304] is ____.
0 pg/mL

###

- Test system: peripheral blood mononuclear cells derived from a cancer patient
- Procedure details: CTL induction by peptide from autologous PBMC of cancer patient, IFN-γ production on recognition of target cells (Example 5)
- Type: cell-based, human
- Details: target COLO320 (HLA-A24/24); PBMC stimulated with 10 μM peptide
Collected IFN-γ production from peripheral blood mononuclear cells in recognition of target cells values appear next to each entry.
Hey, just the number and the unit after it is fine.

# annotated cases, reported IFN-γ production from peripheral blood mononuclear cells in recognition of target cells shown
>>> value_observed("ILGELREKV (Designed peptide having an ability to activate HLA-A2 restricted Cytotoxic T lymphocytes) [Peptide P11, Gene 3 (WHSC2) 141-149]")
"0 pg/mL"
>>> value_observed("ASLDSDPWV (Designed peptide having an ability to activate HLA-A2 restricted Cytotoxic T lymphocytes) [Peptide P10, Gene 3 (WHSC2) 103-111]")
"0 pg/mL"
>>> value_observed("LIADETSGL [Peptide P3, Gene 1 (UBE2V) 85-93]")
"44 pg/mL"
>>> value_observed("MLPLECQYL (Designed peptide having an ability to activate HLA-A2 restricted Cytotoxic T lymphocytes) [Peptide P12, Gene 3 (WHSC2) 157-165]")
"40 pg/mL"
>>> value_observed("TLLRKERGV (Designed peptide having an ability to activate HLA-A2 restricted Cytotoxic T lymphocytes) [Peptide P13, Gene 3 (WHSC2) 267-275]")
"0 pg/mL"
>>> value_observed("LLQDWHVIL (Designed peptide having an ability to activate HLA-A2 restricted Cytotoxic T lymphocytes) [Peptide P4, Gene 1 (UBE2V) 201-209]")
"0 pg/mL"
>>> value_observed("FMFGQKLNV (Designed peptide having an ability to activate HLA-A2 restricted Cytotoxic T lymphocytes) [Peptide P8, Gene 2 (HNRPL) 443-451]")
"0 pg/mL"
>>> value_observed("DLLSHAFFA [Peptide P18]")
"0 pg/mL"
>>> value_observed("ALVEFEDVL (Designed peptide having an ability to activate HLA-A2 restricted Cytotoxic T lymphocytes) [Peptide P6, Gene 2 (HNRPL) 140-148]")
"40 pg/mL"
>>> value_observed("ILPRKHHRI (Designed peptide having an ability to activate HLA-A2 restricted Cytotoxic T lymphocytes) [Peptide P5, Gene 1 (UBE2V) 208-216]")
"38 pg/mL"

Note: attention shifts to another entry.
I would be grateful if you could share the reported IFN-γ production from peripheral blood mononuclear cells in recognition of target cells for CLYGNVEKV (Designed peptide having an ability to activate HLA-A2 restricted Cytotoxic T lymphocytes) [Peptide P7, Gene 2 (HNRPL) 404-412] .
0 pg/mL

###

- Tested on: human peripheral blood mononuclear cells (PBMC)
- Procedure details: CTL induction by peptide from PBMC of HLA-A2-positive cancer patients and healthy individuals, IFN-γ against peptide-pulsed T2 cells (Example 6)
- Format: cell-based
- Details: PBMC of healthy individual HD5; peptide-pulsed T2 cells
Documented INF-γ production across a set of sequences

In the examples that follow, each entry is paired with its recorded INF-γ production.
>>> value_observed("TQLATYSFEV (Designed peptide having an ability to activate HLA-A2 restricted Cytotoxic T lymphocytes) [Peptide P32, CPSF 456-465]")
"0 pg/mL"
>>> value_observed("LLRRADFHV (Designed peptide having an ability to activate HLA-A2 restricted Cytotoxic T lymphocytes) [Peptide P26, Gene 7 1296-1304]")
"13 pg/mL"

Field: INF-γ production (human peripheral blood mononuclear cells (PBMC)). Entry: KVHPVIWSL [Peptide P21]
224 pg/mL
